- Study system: human M1 receptor (hCHRM1) (Homo sapiens, UniProt P11229)
- Construct: expressed in transfected cells
- Sequence (P11229 whole entry): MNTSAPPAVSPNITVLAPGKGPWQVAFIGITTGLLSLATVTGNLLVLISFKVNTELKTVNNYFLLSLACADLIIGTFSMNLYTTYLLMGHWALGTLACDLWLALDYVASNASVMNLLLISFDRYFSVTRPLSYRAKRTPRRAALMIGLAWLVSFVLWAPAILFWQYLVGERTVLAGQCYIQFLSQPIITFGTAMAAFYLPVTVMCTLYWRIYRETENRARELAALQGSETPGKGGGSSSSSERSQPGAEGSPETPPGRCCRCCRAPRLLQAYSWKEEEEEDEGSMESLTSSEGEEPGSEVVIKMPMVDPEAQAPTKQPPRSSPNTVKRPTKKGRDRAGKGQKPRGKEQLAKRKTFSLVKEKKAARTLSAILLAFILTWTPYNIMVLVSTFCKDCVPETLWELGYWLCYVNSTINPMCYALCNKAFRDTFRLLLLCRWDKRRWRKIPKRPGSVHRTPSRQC
- Measurement protocol: Measurement of M1 receptor positive allosteric modulator (M1PAM) activity, Ca2+ fluorescence by FLIPRtetra (Experimental Example 1)
- Format: cell-based
- Assay context: 10 μM test compound, 100% = acetylcholine 1 μM, 0% = DMSO
Reported property: activity (%) at 10 μM
Answers are plain numbers, in %.

Example entries begin here.
CCc1ccc(Cc2cc3c(c4ccccc24)OCN([C@H]2COCC[C@@H]2O)C3=O)cn1: 99
O=C1c2cc(Cc3ccc(Cl)nc3)c3ccccc3c2OCN1CC1CCCO1 (stereo not drawn): 93
COc1ccc(Cc2cc3c(cc2C)OCN([C@H]2COCC[C@@H]2O)C3=O)cc1 (relative stereo): 99
O=C1c2cc(Cc3ccc(Cl)nc3)c3ccccc3c2OCN1[C@H]1COCC[C@@H]1O [Example 4]: 109
O=C1c2cc(Cc3ccc(Cl)nc3)c3ccccc3c2OCN1[C@H]1CCCC[C@@H]1O (relative stereo): 109
Cc1c(Cc2ccc(-c3cnn(C)c3)nc2)cc2c(c1Cl)OCN(CC1CCCO1)C2=O (stereo not drawn): 92

I would be grateful if you could provide activity (%) at 10 μM for each of the following entries.
1. O=C1c2cc(CN3CCCC(F)(F)C3)c3ccccc3c2OCN1[C@H]1CCC[C@@H]1O
2. Cn1cc(-c2ccc(Cc3ccc4c(c3)C(=O)N([C@H]3CCCC[C@@H]3O)CO4)cc2)cn1 (relative stereo)
3. Cc1ccc(Cc2cc3c(c4ccccc24)OCN(CC2CCCO2)C3=O)cn1 (stereo not drawn) [Example 68]
4. N#CC1CCN(Cc2cc3c(c4ccccc24)OCN([C@H]2CCC[C@@H]2O)C3=O)C1 (stereo partly drawn)
5. Cc1ccc(Cc2cc3c(c(F)c2C)OCN([C@H]2CCC[C@@H]2O)C3=O)cn1
6. Cc1c(Cc2ccc(Cl)nc2)cc2c(c1F)OCN([C@H]1CCC[C@@H]1O)C2=O
7. COc1c(Cc2ccc(-n3cccn3)nc2)cc2c(c1F)OCN([C@H]1CCC[C@@H]1O)C2=O (relative stereo) [Example 15]

Reply:
[100, 93, 90, 102, 85, 102, 92]

I would be grateful if you could provide activity (%) at 10 μM for each of the following entries.
1. Cc1ccc(Cc2cc3c(c(Cl)c2C)OCN([C@H]2CCC[C@@H]2O)C3=O)cn1
2. Cc1ccc(Cc2cc3c(cc2C)OCN([C@H]2CCC[C@@H]2O)C3=O)cn1
3. Cn1cc(-c2ccc(Cc3cc4c(c5ccccc35)OCN([C@H]3CCCC[C@@H]3O)C4=O)cn2)cn1 (relative stereo)
4. Cc1cc2c(cc1Cc1ccc(-n3cccn3)cc1)C(=O)N([C@H]1COCC[C@@H]1O)CO2
5. Cc1cc2c(cc1Cc1ccc(C#N)cc1)C(=O)N([C@H]1CCC[C@@H]1O)CO2

Reply:
1. 101
2. 99
3. 104
4. 120
5. 98

I would be grateful if you could provide activity (%) at 10 μM for each of the following entries.
1. Cc1ccc(Cc2cc3c(c(C)c2C)OCN([C@H]2CCC[C@@H]2O)C3=O)cn1
2. Cc1ccc(Cc2cc3c(cc2C)OCN([C@H]2CCCC[C@@H]2O)C3=O)cn1 (single isomer, unassigned) [Example 28]
3. COc1c(Cc2ccc(-n3ccnc3)nc2)cc2c(c1F)OCN([C@H]1CCC[C@@H]1O)C2=O (relative stereo)
4. Cc1cc2c(cc1Cc1ccc(-n3cccn3)cc1)C(=O)N([C@H]1CCC[C@@H]1O)CO2

Reply:
1. 95
2. 108
3. 106
4. 109

I would be grateful if you could provide activity (%) at 10 μM for each of the following entries.
1. Cc1ccc(Cc2cc3c(c(F)c2C)OCN([C@H]2COCC[C@@H]2O)C3=O)cn1
2. Cc1ccc(Cc2cc3c(c(C)c2C)OCN([C@H]2COCC[C@@H]2O)C3=O)cn1 (single isomer, unassigned) [Example 7]
3. COc1ccc(Cc2cc3c(c(C)c2C)OCN([C@H]2COCC[C@@H]2O)C3=O)cn1
4. Cn1cc(-c2ccc(Cc3ccc4c(c3)C(=O)N([C@H]3CCCC[C@@H]3O)CO4)cn2)cn1 (relative stereo)
5. Cc1cc2c(cc1Cc1ccc(Cl)nc1)C(=O)N([C@H]1CCC[C@@H]1O)CO2

Reply:
1. 108
2. 108
3. 106
4. 99
5. 96

----------
- Study system: human M1 receptor (hCHRM1) (Homo sapiens, UniProt P11229)
- Construct: expressed in transfected cells
- Measurement protocol: Measurement of M1 receptor positive allosteric modulator (M1PAM) activity, Ca2+ fluorescence by FLIPRtetra (Experimental Example 1)
- Type: cell-based
- Assay context: 10 μM test compound, 100% = acetylcholine 1 μM, 0% = DMSO
Reported property: activity (%) at 10 μM
Numbers only, in %.

I would be grateful if you could provide activity (%) at 10 μM for each of the following entries.
1. Cc1cc(Cc2ccc(-n3cccn3)cc2)cc2c1OCN([C@H]1CCCC[C@@H]1O)C2=O (relative stereo)
2. Cc1cc2c(cc1CN1CCC(F)(F)CC1)C(=O)N([C@H]1CCCC[C@@H]1O)CO2 (relative stereo)

Reply:
1: 99; 2: 104

Ask: Quick check: activity (%) at 10 μM of Cc1c(Cc2ccc(-c3ccn(C)n3)cc2)cc2c(c1F)OCN([C@H]1CCC[C@@H]1O)C2=O ?
Reply: 98
